Measured z-score by item
test: Components of the Cytosolic LPS Sensing Pathway: Gene Identification via Genome-wide siRNA Screen; details: RAW264.7 macrophages, IL-1a HTRF, actives lie on both sides, screened at 100 nM (by protocol), cells primed 5 h with Pam3CSK4 first;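 also: robust z of the log signal after scaling to non-targeting control siRNA wells of the plate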
Among all 53,000 sequences or so, about 3,700 (7%) were called active. The sample as a whole holds a higher share of actives than the screen did.
Lab note: write the figure by itself, no unit.

Some sequences with recorded z-score:
z-score reported for this sequence GCAUAUGAUUGUCAUGAGUTT against Olfr319 : -1.47

Noted for GGCAGUUGAUUCCUUUAAATT against Baz1a : its z-score reads 0.0425

Form field z-score, entry GCUGGUGCAUUACUGAGGUTT against Olfr69 : 0.434

Lab book: z-score of GGUCUGGAGACAAUCAUCATT against Rnf222 noted as -2.47

sequence GCCAUUUGAAGUGUUUAAATT against Kctd12 , z-score observed: -0.103

---
Lab note: measured z-score of GGUUCUUUUAUGGAUGACATT against Prkaa2 was -0.964

z-score reported for this sequence GCAAUAGCAUACCUACCAUTT against Desi2 : -0.228

Reported z-score ( GGAAUUCAUGAAGUAUAACTT against Myo5c ) = 0.941

----------
Assay: Components of the Cytosolic LPS Sensing Pathway: Gene Identification via Genome-wide siRNA Screen;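 also: robust z of the log signal after scaling to non-targeting control siRNA wells of the plate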
Conditions: RAW264.7 macrophages, IL-1a HTRF, actives lie on both sides, screened at 100 nM (by protocol), cells primed 5 h with Pam3CSK4 first
Description: Non-canonical inflammasome activation by cytosolic LPS is a critical component of the host response to Gram-negative bacterial infection, however we lack a comprehensive understanding of the cellular processes that control this pathway. […] Lipofectamine RNAiMAX Transfection Reagent ([…]; Invitrogen) was added in […] serum-free, antibiotic-free media to plate wells using a Thermo Scientific Matrix WellMate and Microplate Stacker. […] The plates were read on an EnVision plate reader (PerkinElmer). […]
The campaign covered roughly 53,000 sequences. About 3,700 (7%) were called active. The full list was thinned out, with actives kept by preference.
just bin them by z-score: bin 0: < -1; bin 1: ≥ -1 and < 0.5; bin 2: ≥ 0.5

These solved cases illustrate the format of a correct answer.
Input: Quick check: band for GGGCCAAUUCUGAAACUUGTT against Il1f5
Output: bin 2

Input: Which class holds CCAUGUAUGCCUCAACAUATT against Ltf ?
Output: bin 2

---
Input: Class label required: GGUCAAUAUUCUUAUGUCCTT against S1pr3
Output: bin 1

Input: Which bin should I file GGGUUGAUUGACGAAGCCATT against Fga under?
Output: bin 0

Input: State the band of GGCCUACCCAAUUCUUAACTT against Ces1g
Output: bin 1

Input: Band assignment needed for GGGAAUAUUCAGUUGACAATT against Iigp1 please.
Output: bin 0

----------
experiment: Components of the Cytosolic LPS Sensing Pathway: Gene Identification via Genome-wide siRNA Screen; conditions: RAW264.7 macrophages, IL-1a HTRF, actives lie on both sides, screened at 100 nM (by protocol), cells primed 5 h with Pam3CSK4 first;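 also: robust z of the log signal after scaling to non-targeting control siRNA wells of the plate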
The campaign covered roughly 53,000 sequences. About 3,700 (7%) were called active.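 How the source made its calls: active means gene knockdowns whose robust z-score for IL-1 alpha signal is at least 2 or at most -2, so actives lie on both sides; inactive means the rest.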 The full list was thinned out, with actives kept by preference.
Hi there, use one of these labels in your reply, thanks! active, inactive

Solved entries (count: 6):
Input: Which result was noted for this sequence in the test: CCUCUUUCGACAAGAGCUCTT against Atp1a3
Output: inactive

Input: Field: outcome | Entry: GUCUGUCAUUUGUGGAAAUTT against Olfr1495
Output: active

Input: Can you look up the reported call for GCCUCUUCGAACUCACUAUTT against St6galnac3 for me?
Output: inactive

Input: Each sequence tested received a call. Report the one for GGUUUGUUUUACAAAAUGCTT against Zdhhc5 .
Output: inactive

Input: Field: outcome | Entry: GGCGGAGUAGACUUCAUAUTT against Olfr593
Output: inactive

Input: What call does the record list for GCUUGAUUAGGUAGGAAUATT against Stk32a ?
Output: inactive

Others:
Input: So what was the verdict on GGACAGCUCUCUCCAUACATT against Tlr9 in this test?
Output: inactive

Input: Recorded test call requested for GGGAAAAGAGAGUGGUGUATT against Rab27a
Output: inactive
